In this section we review reported solubility kinetic at 1 h values for a set of molecules.
Assay: Kinetic aqueous solubility of compound in phosphate buffer at pH 7.4 incubated for 1 hrs by CLND assay
Format: physicochemical
Conditions: read-out: Kinetic_solubility
Kindly provide the numeric value in µM only, without the unit symbol.

INSERT INTO measurements (molecule, result_units, experimental_result) VALUES
  ('COc1ccc2nc(C)cc(OCC(=O)Nc3cc(C)c(F)c(C)c3)c2c1', 'µM', 31.5),
  ('COc1ccc2nc(C)c(NC(=O)C(=O)Nc3cc(C)cc(C)c3)c(O)c2c1', 'µM', 10),
  ('COc1ccc2nc(C)cc(OCC(=O)Nc3ccncn3)c2c1', 'µM', 27.5);

Item `COc1ccc2nc(C)cc(OCC(=O)Nc3ccncc3)c2c1` has what recorded solubility kinetic at 1 h?
91.5

Thanks! And `COc1ccc2nc(C)cc(OCC(=O)Nc3nccs3)c2c1` ?
54

Thanks! And `COc1ccc2nc(C)cc(OCC(=O)Nc3ccccc3)c2c1` ?
63

Thanks! And COc1ccc2nc(C)cc(OC3CCN(c4ccccc4)C3=O)c2c1 (configuration not stated) ?
215

Thanks! And `COc1ccc2nc(C)cc(OCC(=O)Nc3cc(C)ccc3C)c2c1` ?
45.5

###

In this section we review reported IC50 at 48 h values for a set of molecules.
Test: Cytotoxicity against human HepG2 cells assessed as cell growth inhibition incubated for 48 hrs by CellTiter-Glo reagent based analysis
Assay type: toxicity

See these solved cases before continuing.
INSERT INTO assay_data (molecule, experimental_result) VALUES
  ('COc1ccc2nc(C)cc(OCc3ccc4ccccc4n3)c2c1', '31.6 µM'),
  ('CCC(Oc1cc(C)nc2ccc(OC)cc12)C(=O)Nc1cc(C)cc(C)c1 (centres undefined)', '79.4 µM'),
  ('COc1ccc2nc(C)cc(OCC(=O)Nc3nccs3)c2c1', '> 100 µM'),
  ('COc1ccc2nc(C)cc(OC(C(=O)Nc3cc(C)cc(C)c3)c3ccccc3)c2c1 (centres undefined)', '> 100 µM'),
  ('COc1ccc2nc(C)cc(OC(C)C(=O)Nc3cc(C)cc(C)c3)c2c1 (centres undefined)', '39.8 µM'),
  ('COc1ccc2nc(C)cc(OCC(=O)Nc3noc(C)c3C)c2c1', '> 100 µM');

Next molecule, IC50 at 48 h to be filled in.
Item `COc1ccc2nc(C(F)(F)F)cc(OCC(=O)Nc3cc(C)cc(C)c3)c2c1` has what recorded IC50 at 48 h?
> 100 µM

###

Assay: Kinetic aqueous solubility of compound in phosphate buffer at pH 7.4 incubated for 1 hrs by CLND assay
Format: physicochemical
Settings: read-out: Kinetic_solubility
measured-metric: log10 of solubility kinetic at 1 h (log10 of the value in µM)
In our notation, the value equals log10 of solubility kinetic at 1 h in µM.

See these solved cases before continuing.
INSERT INTO measurements (molecule, measured_metric, experimental_result) VALUES
  ('CCC(Oc1cc(C)nc2ccc(OC)cc12)C(=O)Nc1cc(C)cc(C)c1 (centres undefined)', 'log10 of solubility kinetic at 1 h', 2.09),
  ('COc1ccc2nc(C)cc(OCC(=O)Nc3cc(OC)c(OC)c(OC)c3)c2c1', 'log10 of solubility kinetic at 1 h', 1.53);

Item `Cc1cc(C)cc(NC(=O)COc2cc(C)nc3ccccc23)c1` has what recorded log10 of solubility kinetic at 1 h?
1.74

Thanks! And `COc1ccc2nc(C)cc(OCC(=O)Nc3ccc(Cl)cc3Cl)c2c1` ?
1.31

Thanks! And `CCCc1cc(OCC(=O)Nc2cc(C)cc(C)c2)c2cc(OC)ccc2n1` ?
1.08

Thanks! And `COc1ccc2nc(C)cc(OCC(=O)Nc3cc(C)cc(C)c3)c2c1` ?
1.41

Thanks! And `Cc1cc(C)cc(NC(=O)COc2cc(C)nc3ccc(C(F)(F)F)cc23)c1` ?
1.00

Thanks! And `COc1ccc2nc(C)cc(OCC(=O)Nc3ccc(Cl)cc3)c2c1` ?
0.95

Thanks! And `COc1ccc2nc(C)cc(OCC(=O)Nc3noc(C)c3C)c2c1` ?
2.29

###

In this section we review reported IC50 at 48 h values for a set of compounds.
Assay: Cytotoxicity against human HepG2 cells assessed as cell growth inhibition incubated for 48 hrs by CellTiter-Glo reagent based analysis
Assay type: toxicity

See these solved cases before continuing.
INSERT INTO assay_data (smiles_code, experimental_result) VALUES
  ('COc1ccc2nc(C)cc(OCC(=O)Nc3ccc(S(=O)(=O)Nc4cc(C)on4)cc3)c2c1', '> 100 µM'),
  ('CCCc1cc(OCC(=O)Nc2cc(C)cc(C)c2)c2cc(OC)ccc2n1', '12.6 µM'),
  ('Cc1cc(C)cc(NC(=O)COc2cc(C)nc3ccc(F)cc23)c1', '63.1 µM'),
  ('COc1ccc2nc(C)cc(NC(=O)C(=O)Nc3cc(C)cc(C)c3)c2c1', '> 100 µM');

Item `COc1ccc2nc(C)cc(OC(C)(C)C(=O)Nc3cc(C)cc(C)c3)c2c1` has what recorded IC50 at 48 h?
> 100 µM

###

Experiment: Kinetic aqueous solubility of compound in phosphate buffer at pH 7.4 incubated for 1 hrs by CLND assay
Type: physicochemical
Settings: read-out: Kinetic_solubility
In this section we review reported solubility kinetic at 1 h values for a set of molecules.
Kindly provide the numeric value in µM only, without the unit symbol.

See these solved cases before continuing.
INSERT INTO measurements (smiles_code, experimental_result) VALUES
  ('COc1ccc2nc(C)cc(OCCNc3cc(C)cc(C)c3)c2c1', 33),
  ('COc1ccc2nc(C)cc(OCC(=O)Nc3cc(C)nc(C)n3)c2c1', 5);

Next molecule, solubility kinetic at 1 h to be filled in.
Item `COc1ccc2nc(C)cc(OCC(=O)Nc3ccc(Cl)c(OC)c3)c2c1` has what recorded solubility kinetic at 1 h?
13

###

Test: Kinetic aqueous solubility of compound in phosphate buffer at pH 7.4 incubated for 1 hrs by CLND assay
Format: physicochemical
Details: read-out: Kinetic_solubility
measured-metric: solubility kinetic at 1 h

See these solved cases before continuing.
INSERT INTO results (molecule, measured_metric, experimental_result) VALUES
  ('COc1ccc2nc(C)cc(OCC(=O)Nc3ccc(Br)c(C)c3)c2c1', 'solubility kinetic at 1 h', '< 1 µM'),
  ('COc1ccc2nc(C)cc(OCC(=O)NC3CONC3=O)c2c1 (stereo not given)', 'solubility kinetic at 1 h', '≥ 166 µM'),
  ('Cc1cc(C)cc(NC(=O)COc2cc(C)nc3ccc(OCc4ccccc4)cc23)c1', 'solubility kinetic at 1 h', '< 1 µM'),
  ('CCOc1ccc2nc(C(F)(F)F)cc(OCC(=O)Nc3cc(C)cc(C)c3)c2c1', 'solubility kinetic at 1 h', '< 1 µM');

Next molecule, solubility kinetic at 1 h to be filled in.
Item `COc1ccc2nc(C)cc(OCC(=O)NNC(=O)c3ccncc3)c2c1` has what recorded solubility kinetic at 1 h?
≥ 375 µM
